experiment: Metabolic stability in mouse liver microsomes; type: in vitro ADME; conditions: 1 μM, estimated by first order kinetics
Quantity kind: half-life

IN: Could you share which half-life value was measured for Ac-RAFQAFRKMWPFFAM-NH2 [P60-D2A-S5A] ?
OUT: < 2.5 min

====

assay: Metabolic stability in mouse liver microsomes; type: in vitro ADME; conditions: 1 μM, estimated by first order kinetics
Where a SMILES comes first, the peptide text is derived from it. [ ]: non-standard residue; d: D form.
Quantity kind: half-life

CSCC[C@@H]1NC(=O)[C@H](C)NC(=O)[C@H](Cc2ccccc2)NC(=O)[C@H](Cc2ccccc2)NC(=O)[C@@H]2CCCN2C(=O)[C@H](Cc2c[nH]c3ccccc23)NC(=O)[C@H](CCSC)NC(=O)[C@H](CCCCN)NC(=O)[C@H](CCCNC(=N)N)NC(=O)[C@H](Cc2ccccc2)NC(=O)[C@H](C)NC(=O)[C@H](CCC(N)=O)NC(=O)[C@H](Cc2ccccc2)NC(=O)[C@@H](C)NC(=O)[C@H](CCCNC(=N)N)NC1=O [CM-1315] (cyclo(R[dA]FQAFRKMWPFFAM)) ... ~60 min

# input for lookup
IN: Could you share which half-life value was measured for CSCC[C@@H]1NC(=O)[C@H](C)NC(=O)[C@H](Cc2ccccc2)NC(=O)[C@H](Cc2ccccc2)NC(=O)[C@@H]2CCCN2C(=O)[C@H](Cc2c[nH]c3ccccc23)NC(=O)[C@H](CCSC)NC(=O)[C@H](CCCCN)NC(=O)[C@H](CCCNC(=N)N)NC(=O)[C@H](Cc2ccccc2)NC(=O)[C@H](C)NC(=O)[C@H](CCC(N)=O)NC(=O)[C@H](Cc2ccccc2)NC(=O)[C@H](C)NC(=O)[C@H](CCCNC(=N)N)NC1=O [CM-1215] (cyclo(RAFQAFRKMWPFFAM)) ?
OUT: ~8 min
